# System: HOP-62 NSCLC
# RUN_DESCRIPTION: NCI tumour cell line growth inhibition, 48 h; in the data active means GI50 below about 0.43 µM; inactive means the rest
Hi there, use one of these labels in your reply, thanks! TRUE = active, FALSE = inactive

Ask | So what was the verdict on COc1cc(/C(Cl)=C/C=C/C(=O)c2c(C)[n+]([O-])c3ccc(Cl)cc3[n+]2[O-])cc(OC)c1OC in this test?
Reply | FALSE

Ask | So what was the verdict on C=C(Cn1c(=O)c2ccccc2c2ccccc21)c1ccc(C(=O)Nc2ccccc2N)cc1 in this test?
Reply | FALSE

Ask | So what was the verdict on CC(C)(C)OC(=O)NCCNC1=CC(=O)c2nc3ccccc3c3ccnc1c23 in this test?
Reply | FALSE

Ask | So what was the verdict on COC1=CC(c2ccc[nH]2)=N/C1=C\c1[nH]c(C)c(C(=O)OCc2ccccc2)c1C in this test?
Reply | TRUE

Ask | So what was the verdict on COc1ccc2c(c1)C(=O)c1c-2n(CCCN)c(=O)c2ccccc12 in this test?
Reply | TRUE

Ask | So what was the verdict on CC/C(Cc1ccccc1)=C(\c1ccc(OCCN2CCCCCC2)cc1)c1ccc(OC(=O)NCc2ccccc2)cc1 in this test?
Reply | FALSE

Ask | So what was the verdict on C=C(CNC(=O)Nc1ccc(-c2ccccc2)cc1)c1ccc(C(=O)Nc2ccccc2N)cc1 in this test?
Reply | FALSE

Ask | So what was the verdict on Cn1cc(-c2nonc2-c2c[nH]c3ccccc23)c2ccccc21 in this test?
Reply | FALSE

* * *

# Test system: DLD-1 colon
# RUN_DESCRIPTION: NCI tumour cell line growth inhibition, 48 h
QUANTITY_MEASURED: TGI

Ask | Param readout= TGI; system= DLD-1 colon; entry= Cc1c2cc[nH]c(C(F)(F)F)c2cc2c1nc1ccccc12 ; returns value.
Reply | > 125 µM

Ask | Param readout= TGI; system= DLD-1 colon; entry= N=C(c1ccccc1)N(c1ccccc1)c1ccccc1 ; returns value.
Reply | > 100 µM

Ask | Param readout= TGI; system= DLD-1 colon; entry= COc1ccc(/C=C2\CN(C)Cc3c2nc(N)nc3-c2ccc(OC)cc2)cc1 ; returns value.
Reply | > 100 µM

Ask | Param readout= TGI; system= DLD-1 colon; entry= CC1=NN(C(=O)c2ccccc2O)C(=O)/C1=C/c1ccc([N+](=O)[O-])cc1 ; returns value.
Reply | > 100 µM

Ask | Param readout= TGI; system= DLD-1 colon; entry= C1OCC2S[C@@H]3COCO[C@@H]3C2O1 (stereo not given in full) ; returns value.
Reply | > 100 µM

* * *

# System: MDA-MB-435
Hi there, use one of these labels in your reply, thanks! active, inactive

Ask | So what was the verdict on c1ccc(CNC2CC(NCc3ccccn3)CC(NCc3ccccn3)C2)nc1 (centres undefined) in this test?
Reply | inactive

Ask | So what was the verdict on Cc1ccc(C(=O)N(CCCN)[C@@H](c2nc3cc(Cl)ccc3c(=O)n2Cc2ccccc2)C(C)C)cc1 in this test?
Reply | active

Ask | So what was the verdict on CC(=O)N1CCN(C2=Nc3ccccc3CO2)C1=S in this test?
Reply | inactive

Ask | So what was the verdict on COc1cccc2c1C(=O)c1c(O)c3c(c(O)c1C2=O)CC(O)(C(C)=O)CC3OC1CC(N)C(O)C(C)O1 (centres undefined) in this test?
Reply | inactive

* * *

# Test system: RXF 393 renal
# RUN_DESCRIPTION: NCI tumour cell line growth inhibition, 48 h; in the data active = GI50 below about 0.43 µM; inactive = the rest
Hi there, use one of these labels in your reply, thanks! active, inactive

Ask | So what was the verdict on CO[C@H](C(=O)[C@@H](O)[C@@H](C)O)[C@@H]1Cc2cc3cc(O[C@H]4C[C@@H](O[C@H]5C[C@@H](O)[C@H](O)C(C)O5)[C@H](O)C(C)O4)c(C)c(O)c3c(O)c2C(=O)[C@H]1O[C@H]1C[C@@H](O[C@H]2C[C@@H](O[C@H]3C[C@@H](OC)[C@H](O)C(C)O3)[C@@H](O)C(C)O2)C(O)(O)C(C)O1 (stereo partly drawn) in this test?
Reply | active

Ask | So what was the verdict on O=S(=O)(Nc1ncccn1)c1ccc(N=Nc2ccc(O)c3ncccc23)cc1 in this test?
Reply | inactive

Ask | So what was the verdict on COc1cccc2c1C(=O)c1c(O)c3c(c(O)c1C2=O)CC(O)(C(C)=O)CC3OC1CC(N)C(O)C(C)O1 (stereo not drawn) in this test?
Reply | inactive

* * *

# Test system: OVCAR-3 ovarian
# RUN_DESCRIPTION: NCI tumour cell line growth inhibition, 48 h
Assignment: determine reported TGI for the given compounds.

Ask | Param readout= TGI; system= OVCAR-3 ovarian; entry= Cc1ccc(C(=O)O/N=C2/CCCC/C2=C\c2ccccc2)cc1 ; returns value.
Reply | > 100 µM

Ask | Param readout= TGI; system= OVCAR-3 ovarian; entry= NS(=O)(=O)c1ccc(NC(=O)c2ccc(NC3=C(Cl)C(=O)N(Cc4ccccc4)C3=O)cc2)cc1 ; returns value.
Reply | 7.88 µM

Ask | Param readout= TGI; system= OVCAR-3 ovarian; entry= O=C1c2c(F)c(F)c(F)c(F)c2SC2=NCCN12 ; returns value.
Reply | 9.21 µM

Ask | Param readout= TGI; system= OVCAR-3 ovarian; entry= CN1C/C(=C\c2cccs2)C2=NC(=S)NC(c3cccs3)C2C1 (stereo unspecified) ; returns value.
Reply | > 100 µM

Ask | Param readout= TGI; system= OVCAR-3 ovarian; entry= O=S(=O)(Nc1ncccn1)c1ccc(N=Nc2ccc(O)c3ncccc23)cc1 ; returns value.
Reply | 59.4 µM

Ask | Param readout= TGI; system= OVCAR-3 ovarian; entry= O=C(c1ccccc1)c1ccc2c(c1)nc1n2C(c2c(Cl)cccc2Cl)SC1 (stereo unspecified) ; returns value.
Reply | > 100 µM

Ask | Param readout= TGI; system= OVCAR-3 ovarian; entry= Nc1nc(N)c2ncn(CC3CCC(CO)C3)c2n1 (stereo unspecified) ; returns value.
Reply | > 100 µM

Ask | Param readout= TGI; system= OVCAR-3 ovarian; entry= C=C(C)C(=O)CC[C@@H](C)[C@H]1[C@@H](OC2OC(CO)C(O)C(O)C2O)C[C@@]2(C)[C@@H]3C[C@H](O)C4C(C)(C)[C@@H](OC5OC(CO)C(O)C(O)C5O)CC[C@@]45C[C@@]35CC[C@]12C (stereo partly specified) ; returns value.
Reply | > 100 µM

Ask | Param readout= TGI; system= OVCAR-3 ovarian; entry= CCSc1nnc2c(-c3ccccc3)n[nH]c2n1 ; returns value.
Reply | > 100 µM

Ask | Param readout= TGI; system= OVCAR-3 ovarian; entry= CCc1nn(CN2CCN(C)CC2)c(=S)n1/N=C\c1ccc(-c2ccc([N+](=O)[O-])cc2)o1 ; returns value.
Reply | > 100 µM

Ask | Param readout= TGI; system= OVCAR-3 ovarian; entry= O=S(=O)(c1ccc(Br)cc1)n1c2ccc(Br)cc2c2nc3ccccc3nc21 ; returns value.
Reply | > 100 µM

* * *

Assignment: determine reported TGI for the given molecules.
# System: NCI-H522 lung
# RUN_DESCRIPTION: NCI tumour cell line growth inhibition, 48 h

Ask | // query TGI value for entry O=C1NC(N/N=C\C(O)C(O)C(O)CO)=N/C1=C/c1ccccc1 (stereo unspecified)
Reply | > 100 µM

Ask | // query TGI value for entry CC(=O)OCC1OC(Nc2[nH]c(=O)n(C)c(=O)c2-c2csc(N)n2)C(OC(C)=O)C(OC(C)=O)C1OC(C)=O (stereo unspecified)
Reply | > 100 µM

Ask | // query TGI value for entry COC1=CC(c2ccc[nH]2)=N/C1=C\c1[nH]c(C)c(C(=O)OCc2ccccc2)c1C
Reply | 1.15 µM

Ask | // query TGI value for entry OCC1OC(c2scc3c(=S)nc[nH]c23)C(O)C1O (stereo unspecified)
Reply | 82.4 µM

Ask | // query TGI value for entry COC(=O)C(=O)C(C(=O)Nc1cccc(C)c1C)C1Sc2ccccc2NC1=O (stereo unspecified)
Reply | > 25 µM

Ask | // query TGI value for entry Cc1c2cc(Cl)ccc2n2c(=O)c3ccccc3[nH]c(=O)c12
Reply | > 100 µM

* * *

Assignment: determine reported TGI for the given compounds.
# Test system: T-47D breast
# RUN_DESCRIPTION: NCI tumour cell line growth inhibition, 48 h

Ask | // query TGI value for entry N#Cc1cc(C#N)c(Cl)nc1N
Reply | > 10 µM

Ask | // query TGI value for entry O=C1CSC2(CC(/C=C/c3ccccc3)=NN2c2cccc(S(=O)(=O)O)c2)N1c1nc2ccccc2s1 (centres undefined)
Reply | 52.5 µM

Ask | // query TGI value for entry O=C(Cn1c(=O)oc2ccc(C(=O)c3ccc(F)cc3)cc21)c1ccc([N+](=O)[O-])cc1
Reply | > 100 µM

Ask | // query TGI value for entry CCOc1cc2c(cc1O)/C(=N\N)C[C@@H]1[C@@H]2CC[C@]2(C)[C@@H](O)CC[C@@H]12
Reply | > 39.5 µM

Ask | // query TGI value for entry CCCC(=O)O
Reply | 9400 µM

Ask | // query TGI value for entry COc1ccc2oc(=N)c(C(=O)Nc3cccc4ccccc34)cc2c1
Reply | > 100 µM

Ask | // query TGI value for entry C=C(C)[C@@]1(O)O[C@H]2C[C@@]3(C)OC(=CC3=O)/C(C)=C\[C@@H]3OC(=O)[C@@]1(C)[C@H]32
Reply | 59.2 µM

Ask | // query TGI value for entry C=C(Cn1c(=O)c2ccccc2c2ccccc21)c1ccc(C(=O)Nc2ccccc2N)cc1
Reply | > 69.3 µM

Ask | // query TGI value for entry O=C(Cc1ccccc1)NCCc1ccc(O)c(O)c1
Reply | > 100 µM

Ask | // query TGI value for entry Cc1ccc(C2CC(=O)CC(c3ccc(C)cc3)C23C(=O)NC(=O)NC3=O)cc1 (centres undefined)
Reply | > 100 µM

Ask | // query TGI value for entry Cc1ccccc1NC(=S)Nc1ccccn1
Reply | > 100 µM

Ask | // query TGI value for entry Cc1c2cnccc2c(C)c2c1c1cc(C3OCCCO3)ccc1n2C
Reply | 3.16 µM

Ask | // query TGI value for entry O=c1cnn(C/C=C\CO)c(=O)[nH]1
Reply | > 100 µM

Ask | // query TGI value for entry OCCOc1ccc(-c2cc(-c3ccccn3)nc(-c3ccccn3)c2)cc1
Reply | > 100 µM

Ask | // query TGI value for entry CN(C)CCNc1ccc(C(=O)NCCCN(C)CCCNC(=O)c2ccc(NCCN(C)C)c3c(=O)c4ccccc4[nH]c23)c2[nH]c3ccccc3c(=O)c12
Reply | 2.64 µM

Ask | // query TGI value for entry Cc1nc2ccc(CN(C)c3ccc(C(=O)N[C@@H](CCC(=O)O)C(=O)O)s3)cc2c(=O)[nH]1
Reply | > 100 µM

Ask | // query TGI value for entry Cc1ccc(S(=O)(=O)c2scc(-c3ccccc3)c2C)cc1
Reply | > 100 µM

Ask | // query TGI value for entry CCCCNC1CCC2(SCCS2)c2[nH]c3ccccc3c21 (centres undefined)
Reply | 6.23 µM

Ask | // query TGI value for entry O=C(Nc1ccc(Cl)cc1Cl)c1ccc(NC2=C(Cl)C(=O)N(Cc3ccccc3)C2=O)cc1
Reply | > 100 µM
